target: T1, Histidine-tagged human PD-1 protein (hPD-1-His) (human, UniProt Q15116 25-170, limits assumed); assay: SPR (Biacore T200), antibody captured on Protein A chip, hPD-1-His analyte, 1:1 fit
T1 construct: Soluble analyte in SPR; not shown: histidine tag
T1 sequence (Q15116 25-170 limits assumed): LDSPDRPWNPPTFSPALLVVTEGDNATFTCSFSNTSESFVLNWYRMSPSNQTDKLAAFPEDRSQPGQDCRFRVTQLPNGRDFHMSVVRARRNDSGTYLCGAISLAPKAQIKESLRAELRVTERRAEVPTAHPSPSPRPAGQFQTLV
pKd: −log10 of the molar value.
REPORTED METRIC: pKd

[[record]]
binder = "3F1-H4K3-IgG4-S228P (antibody, V domains shown, Humanized; human IgG4 constant domains with S228P (EU numbering)) VH: QVQLQQSGAEVAKPGASVKMSCKASGYTFTSYWMHWVKQRPGQGLEWIGYINPSTGYTEYNQKFKDRATLTADKSTSTAYMELSSLTSEDTAVYYCARGVRYYFDYWGQGTLLTVSS VL: DIVMTQSPSSLAVSAGERVTMSCKSSQSLLNSRTRKNYLAWYQQKPGQSPKLLIYWASTRESGVPDRFSGSGSGTDFTLTISSVQAEDVAVYYCKQSYNLLTFGQGTKLELK"
test_value = 6.40

[[record]]
binder = "3F1-H1K2-IgG4-S228P (antibody, V domains shown, Humanized; human IgG4 constant domains with S228P (EU numbering)) VH: QVQLQQSGAEVKKPGASVKMSCKASGYTFTSYWMHWVRQAPGQGLEWIGYINPSTGYTEYNQKFKDRATLTADTSTSTAYMELSSLRSEDTAVYYCARGVRYYFDYWGQGTLVTVSS VL: DIVMTQSPDSLAVSLGERATMSCKSSQSLLNSRTRKNYLAWYQQKPGQSPKLLIYWASTRESGVPDRFSGSGSGTDFTLTISSVQAEDVAVYYCKQSYNLLTFGQGTKLELK"
test_value = 6.53

